Below, each entry is listed alongside its reported Increase in the number of yellow wells compared to the reference level, E. coli WP2.
Test system: E. coli WP2
Test: Ames microplate test, E. coli WP2;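 also: bacteria exposed to compound for 90 min at 37 °C in 24-well plates, then transferred with indicator medium to 384-well plates and incubated 48 h before yellow well counting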
Details: 1.0 mM, without S9
measured-attribute: Increase in the number of yellow wells compared to the reference level, E. coli WP2

molecule: O=C(/C=C/c1ccccc1)NCCCCCO
study-system: E. coli WP2
observed-measurement: 0.37

molecule: O=C(/C=C/c1ccc(Cl)cc1)NCCCCCO
study-system: E. coli WP2
observed-measurement: 1.10

molecule: CCC(O)CNC(=O)/C=C/c1ccc(Cl)cc1 (stereo not drawn)
study-system: E. coli WP2
observed-measurement: 1.00

molecule: CC(CO)NC(=O)/C=C/c1ccc(Cl)cc1 (stereo not drawn)
study-system: E. coli WP2
observed-measurement: 1.03

molecule: O=C(/C=C/c1ccccc1)NCCCCCCO
study-system: E. coli WP2
observed-measurement: 0.67

molecule: Cc1ccc(/C=C/C(=O)NCCCCCO)cc1
study-system: E. coli WP2
observed-measurement: 0.40

====

LDH, Neuroblastoma SH-SY5Y values, listed per item
Tested on: neuroblastoma SH-SY5Y
Experiment: Safety, LDH test in SH-SY5Y
Type: cell-based
Settings: 200 μM, 48 hours, vs Triton X-100

molecular-string: O=C(/C=C/c1ccc(Cl)cc1)NCCCO
study-system: neuroblastoma SH-SY5Y
LDH, Neuroblastoma SH-SY5Y: 8.35 percentage of positive control
//
molecular-string: Cc1ccc(/C=C/C(=O)NCCCCCO)cc1
study-system: neuroblastoma SH-SY5Y
LDH, Neuroblastoma SH-SY5Y: 8.92 percentage of positive control
//
molecular-string: O=C(/C=C/c1ccc(Cl)cc1)NCCCCCO
study-system: neuroblastoma SH-SY5Y
LDH, Neuroblastoma SH-SY5Y: 5.98 percentage of positive control
//
molecular-string: O=C(/C=C/c1ccc(Cl)cc1)NCCO
study-system: neuroblastoma SH-SY5Y
LDH, Neuroblastoma SH-SY5Y: 5.98 percentage of positive control
//
molecular-string: O=C(/C=C/c1ccccc1)NCCCCCO
study-system: neuroblastoma SH-SY5Y
LDH, Neuroblastoma SH-SY5Y: 8.49 percentage of positive control

====

Tested on: B16-F10 murine melanoma cell line
Assay: Cytotoxicity (MTT) in B16-F10 murine melanoma cells
Type: cell-based
Conditions: 150 μM, 48 h
Procedure: Cytotoxicity Assessment in the B16-F10 Murine Melanoma Cell Line (ATTC CRL-6745)—Preliminary Safety Assessment for Subsequent Studies In order to determine safe doses of compounds for testing the inhibition of melanogenesis in a murine melanoma cell line, cytotoxicity tests were performed. Cytotoxicity was determined by the colorimetric method using MTT ([3-(4,5-dimethyl-2-thiazolyl)-2,5-diphenyl-2H-tetrazolium bromide, Sigma M5655). […]
# note: exactly 90% is not below, so it is not satisfied; use satisfied for Cytotoxicity study in B16F10 cells, % viability strictly under it

compound: CCC(CO)NC(=O)/C=C/c1ccc(C)cc1 (stereo not drawn)
label: satisfied

compound: O=C(/C=C/c1ccc(Cl)cc1Cl)NCCCCO
label: satisfied

compound: CCC(CO)NC(=O)/C=C/c1ccc(Cl)cc1 (stereo not drawn)
label: satisfied

compound: CC(CO)NC(=O)/C=C/c1ccc(Cl)cc1 (stereo not drawn)
label: satisfied

compound: O=C(/C=C/c1ccccc1)NCCCCCO
label: not satisfied

compound: Cc1ccc(/C=C/C(=O)NCCCCO)cc1
label: satisfied

compound: O=C(/C=C/c1ccc(Cl)cc1)NCCCCO
label: satisfied

compound: Cc1ccc(/C=C/C(=O)NC(C)CO)cc1 (stereo not drawn)
label: not satisfied

compound: CCC(O)CNC(=O)/C=C/c1ccc(Cl)cc1Cl (stereo not drawn)
label: not satisfied

compound: O=C(/C=C/c1ccccc1)NCCO
label: satisfied

compound: O=C(/C=C/c1ccc(Cl)cc1Cl)NCCCO
label: satisfied

compound: Cc1ccc(/C=C/C(=O)NCCCCCO)cc1
label: satisfied

compound: O=C(/C=C/c1ccc(Cl)cc1)N1CCC(O)CC1
label: not satisfied

compound: O=C(/C=C/c1ccc(Cl)cc1)NCCCO
label: satisfied

compound: O=C(/C=C/c1ccc(Cl)cc1Cl)NCCCCCO
label: not satisfied

compound: CCC(CO)NC(=O)/C=C/c1ccc(Cl)cc1Cl (stereo not drawn)
label: satisfied

compound: CCC(O)CNC(=O)/C=C/c1ccc(Cl)cc1 (stereo not drawn)
label: satisfied
